# target-of-assay: Tyrosine-protein kinase Fyn (Homo sapiens)
# condition-context: at 1 µM
# Description: GSK_PKIS: FYN mean inhibition at 1 uM [Nanosyn]
Give measured inhibition for each item. Keep answers brief.
A bare number is not enough; add the unit after it.

Solved entries (count: 3):
Can you look up the measured inhibition of CCN1CCC(C(=O)Nc2n[nH]c3nnc(-c4cccc(F)c4F)cc23)CC1 for me?
0.66%

May I ask what inhibition has been recorded for COc1cc2c(cc1Nc1nc(Nc3cccc(F)c3C(N)=O)c3cc[nH]c3n1)N(C(=O)CN1CCN(C(C)C)CC1)CC2 ?
2.53%

inhibition for COC(=O)Nc1nc2cc(Oc3ccc(NC(=O)Nc4ccccc4)cc3)ccc2[nH]1 ?
4.68%

Field: inhibition. Fill in for each record below.
1. COc1ccccc1-c1cc(/C=C2\C(=O)Nc3ncc(Br)cc32)cc(Br)c1O
2. NS(=O)(=O)c1ccc(N/N=C2\C(=O)Nc3ccc(C(=O)NCc4ccncc4)cc32)cc1
3. CNC(=O)c1cncc(/C=C/c2ccccc2C)c1

1: 26.3%; 2: 50.9%; 3: 10.8%
